Tested on: human fibroblast MRC-5 cell line
Assay procedure: Cytotoxicity assay on MRC-5 fibroblasts (resazurin)
Type: cell-based
Condition notes: MRC-5 cells; class in words
Measurement name: cytotoxicity classification from CC50

>>> print(df.to_string())
                                   compound                       measurement_name                result
0  O=C1C[C@H](c2ccccn2)[S+]([O-])[C@H](c2ccccn2)C1 (stereo partly shown) [Compound B5]  cytotoxicity classification from CC50  moderately cytotoxic
1  O=C1C[C@H](c2ccccn2)S(=O)(=O)[C@@H](c2ccccn2)C1 [Compound B9]  cytotoxicity classification from CC50  moderately cytotoxic
2  O=C1C[C@H](c2ccccn2)S(=O)(=O)[C@H](c2ccccn2)C1 [Compound B11]  cytotoxicity classification from CC50  moderately cytotoxic
3  O=C(/C=C/c1ccccn1)/C=C/c1ccccn1 [Compound A1]  cytotoxicity classification from CC50      rather cytotoxic
4  COc1ccc(O)c(/C=C/C(=O)/C=C/c2cc(OC)ccc2O)c1 [Compound A2]  cytotoxicity classification from CC50      rather cytotoxic
5  O=C1C[C@H](c2ccccn2)[S+]([O-])[C@@H](c2ccccn2)C1 [Compound B3]  cytotoxicity classification from CC50  moderately cytotoxic
6  Cc1ccc(/C=C/C(=O)/C=C/c2ccc(C)o2)o1 [Compound A16]  cytotoxicity classification from CC50      rather cytotoxic

* * *

Assay procedure: Cytotoxicity assay on MRC-5 fibroblasts (resazurin)
Assay type: cell-based, human
Condition notes: human, MRC-5 SV2 fibroblast cells; MRC-5 SV2 cells, 72 h, resazurin; read-out: Cytotoxicity MRC-5 CC50
Measurement name: CC50 at 72 h (µM)

In [3]: df
Out[3]:
                                   compound  result_number
0  CC/C(=C(\c1ccccc1)c1ccc(OCCN(C)C)cc1)c1ccccc1 [tamoxifen, reference compound]           9.12

* * *

Tested on: human fibroblast MRC-5 cell line
Assay procedure: Cytotoxicity assay on MRC-5 fibroblasts (resazurin)
Assay type: cell-based
Experimental: In vitro biological assays. Compounds were tested to establish a full dose-titration and determination of the IC50. […] The selectivity antiprotozoal potential on P. falciparum (3D7 strain) was assessed by simultaneous evaluation of cytotoxicity on a fibroblast (MRC-5) cell line. Cytotoxicity assay. […] Cell viability was assessed fluorometrically after 4 h of the addition of resazurin. […]
Measurement name: cytotoxicity classification from CC50

                      smiles_entry                       measurement_name            result
0  O=C(/C=C/c1ccccc1)/C=C/c1ccncc1  cytotoxicity classification from CC50  rather cytotoxic
1  O=C(/C=C/c1ccncc1)/C=C/c1ccncc1  cytotoxicity classification from CC50  rather cytotoxic
2  O=C(/C=C/c1ccccc1)/C=C/c1ccccn1  cytotoxicity classification from CC50  rather cytotoxic

* * *

System: human fibroblast MRC-5 cell line
Assay procedure: Cytotoxicity assay on MRC-5 fibroblasts (resazurin)
Assay type: cell-based
Quick reference for SI CC50/IC50 among some molecules
Measurement name: SI CC50/IC50

                                    molecule   result
 0  CN(C)c1ccc(/C=C/C(=O)/C=C/c2ccc(F)cn2)cc1 [Compound A5]    292.4
 1  COc1cc(/C=C/C(=O)/C=C/c2ccc(O)c(OC)c2)ccc1O [Compound A18]     <2.1
 2  O=C1C[C@H](c2ccccn2)S[C@@H](c2ccccn2)C1 [Compound B7]     <128
 3  Cc1ccc(/C=C/C(=O)/C=C/c2ccc(C)o2)o1 [Compound A16]    <10.7
 4  O=C1C[C@H](c2ccccn2)[S+]([O-])[C@@H](c2ccccn2)C1 [Compound B3]    199.5
 5  O=C1C[C@H](c2ccccn2)[S+]([O-])[C@H](c2ccccn2)C1 (some centres unmarked) [Compound B5]     33.6
 6  COc1ccc(O)c(/C=C/C(=O)/C=C/c2cc(OC)ccc2O)c1 [Compound A2]     62.2
 7  O=C(/C=C/c1ccc(Cl)cc1)/C=C/c1ccc(Cl)cc1 [Compound A9]    351.6
 8  O=C1C[C@H](c2ccccn2)S(=O)(=O)[C@@H](c2ccccn2)C1 [Compound B9]    <15.8
 9  O=C(/C=C/c1ccccc1)/C=C/c1ccccn1 [Compound A10]      9.5
10  CN(C)c1ccc([C@H]2CC(=O)C[C@H](c3ccc(N(C)C)cc3)S2)cc1 [Compound B12]     <9.9
11  O=C(/C=C/c1ccccc1Cl)/C=C/c1ccccc1Cl [Compound A11]    162.3
12  O=C(/C=C/c1ccccc1)/C=C/c1ccncc1 [Compound A7]     16.5
13  O=C(/C=C/c1c(Cl)cccc1Cl)/C=C/c1c(Cl)cccc1Cl [Compound A12]   >266.5
14  O=C(/C=C/c1ccccn1)/C=C/c1ccccn1 [Compound A1]     63.4
15  O=C1C[C@@H](c2ccccn2)S[C@@H](c2ccccn2)C1 [Compound B6]     <128
16  O=C(/C=C/c1ccco1)/C=C/c1ccco1 [Compound A8]   >530.2
17  O=C(/C=C/c1ccncc1)/C=C/c1ccncc1 [Compound A13]     <2.3
18  COc1cc(Br)c(OC)c([C@@H]2CC(=O)C[C@H](c3cc(OC)cc(Br)c3OC)S2)c1 [Compound B1]  >2112.2
19  O=C(/C=C/c1ccccc1)/C=C/c1ncccn1 [Compound A14]     <3.1
20  O=C1C[C@H](c2ccccn2)S(=O)(=O)[C@H](c2ccccn2)C1 [Compound B11]    <14.9
21  COc1ccc(/C=C/C(=O)/C=C/c2ccc3ccccc3c2)cc1 [Compound A3]      625
22  O=C1C[C@@H](c2c(Cl)cccc2Cl)S[C@H](c2c(Cl)cccc2Cl)C1 [Compound B8]     <128
23  COc1ccc([C@H]2CC(=O)C[C@H](c3ccc(OC)cc3)S2(=O)=O)cc1 [Compound B10]     <128
24  Cc1ccc(/C=C/C(=O)/C=C/c2ccc(C)cc2)cc1 [Compound A17]    <64.9
25  CN(C)c1ccc(/C=C/C(=O)/C=C/c2ccc(N(C)C)cc2)cc1 [Compound A19]   <124.5
